Target: Retinoic acid receptor RXR-alpha (Homo sapiens) (UniProt P19793)
Sequence (P19793 whole entry): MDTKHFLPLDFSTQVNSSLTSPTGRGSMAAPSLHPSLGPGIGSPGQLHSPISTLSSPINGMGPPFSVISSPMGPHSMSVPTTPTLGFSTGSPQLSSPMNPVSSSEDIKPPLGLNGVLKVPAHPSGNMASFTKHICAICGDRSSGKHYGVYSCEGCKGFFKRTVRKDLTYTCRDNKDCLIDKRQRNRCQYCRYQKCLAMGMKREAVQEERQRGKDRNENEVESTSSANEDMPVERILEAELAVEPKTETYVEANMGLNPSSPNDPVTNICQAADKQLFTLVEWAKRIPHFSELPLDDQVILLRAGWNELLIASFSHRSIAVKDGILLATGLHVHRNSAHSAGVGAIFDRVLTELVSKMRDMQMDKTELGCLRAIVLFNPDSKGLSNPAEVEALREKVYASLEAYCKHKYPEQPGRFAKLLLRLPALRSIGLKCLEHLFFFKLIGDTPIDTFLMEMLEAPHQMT
Assay: Agonist activity at Renilla luciferase/GFP2-tagged RXRalpha homodimer (unknown origin) expressed in HEK293T cells by BRET2 assay relative to bexarotene
Format: cell-based
Conditions: HEK-293T
The source made the active and inactive calls. No cut-off for these calls is given here.
measurement-kind: Efficacy

>>> result("CC1(C)CCC(C)(C)c2cc3c(cc21)O[C@H]1CCC[C@@]31c1ccc(C(=O)O)cc1")
"inactive"
>>> result("CC1(C)CCC(C)(C)c2cc3c(cc21)O[C@@H]1CCC[C@]31c1ccc(C(=O)O)cc1")
"85%"
>>> result("CC1(C)CCC(C)(C)c2cc3c(cc21)O[C@@H]1CCCC[C@]31c1ccc(C(=O)O)cc1")
"80%"
>>> result("CC1(C)CCC(C)(C)c2cc3c(cc21)O[C@H]1CCCC[C@@]31c1ccc(C(=O)O)cc1")
"inactive"
